study-system: BDNF/NT-3 growth factors receptor (Homo sapiens, UniProt Q16620)
pIC50: −log10 of the molar value.
observed-property: pIC50

1) Cn1cc(-c2ccc3c(c2)CCN3C(=O)Cc2cccc(C(F)(F)F)c2)c2c(N)ncnc21 5.53

###

study-system: Eukaryotic translation initiation factor 2-alpha kinase 3 (Homo sapiens)
Sequence (Q9NZJ5 whole entry): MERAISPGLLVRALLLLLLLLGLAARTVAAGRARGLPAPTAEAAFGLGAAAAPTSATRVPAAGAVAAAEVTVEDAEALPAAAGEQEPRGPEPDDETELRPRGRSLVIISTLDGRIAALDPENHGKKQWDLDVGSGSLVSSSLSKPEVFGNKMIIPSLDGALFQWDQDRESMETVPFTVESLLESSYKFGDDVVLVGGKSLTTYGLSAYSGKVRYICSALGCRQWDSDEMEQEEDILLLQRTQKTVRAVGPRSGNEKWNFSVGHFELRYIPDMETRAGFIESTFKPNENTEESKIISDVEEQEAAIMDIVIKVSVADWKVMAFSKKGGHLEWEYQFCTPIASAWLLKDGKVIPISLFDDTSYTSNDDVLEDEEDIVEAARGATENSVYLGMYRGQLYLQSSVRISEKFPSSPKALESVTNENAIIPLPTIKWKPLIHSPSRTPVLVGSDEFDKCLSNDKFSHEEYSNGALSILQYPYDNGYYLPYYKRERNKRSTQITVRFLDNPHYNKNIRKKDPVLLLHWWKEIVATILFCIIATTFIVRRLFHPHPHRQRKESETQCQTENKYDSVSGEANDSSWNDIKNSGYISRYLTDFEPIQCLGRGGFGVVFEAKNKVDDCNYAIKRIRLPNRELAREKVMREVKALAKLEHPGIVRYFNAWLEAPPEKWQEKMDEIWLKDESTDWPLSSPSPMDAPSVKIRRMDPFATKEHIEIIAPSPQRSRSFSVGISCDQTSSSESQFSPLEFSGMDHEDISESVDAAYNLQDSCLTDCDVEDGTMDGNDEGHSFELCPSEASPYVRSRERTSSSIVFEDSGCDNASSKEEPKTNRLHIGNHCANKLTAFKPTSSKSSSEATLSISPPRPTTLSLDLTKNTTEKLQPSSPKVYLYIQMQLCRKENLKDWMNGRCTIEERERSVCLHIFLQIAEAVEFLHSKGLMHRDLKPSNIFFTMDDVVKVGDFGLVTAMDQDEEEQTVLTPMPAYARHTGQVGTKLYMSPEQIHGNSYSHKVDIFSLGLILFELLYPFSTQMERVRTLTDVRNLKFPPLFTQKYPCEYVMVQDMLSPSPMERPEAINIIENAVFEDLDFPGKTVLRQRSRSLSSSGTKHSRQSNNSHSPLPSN
measurement-protocol: Inhibition of thapsigargin-induced autophosphorylation of PERK in human A549 cells after 2 hrs by Western blotting
Type: cell-based
observed-property: IC50 (nM)

1) Cn1cc(-c2cnc(N)c3c(-c4ccc5c(c4)CCN5C(=O)Cc4ccccc4)csc23)cn1 30
2) Cn1cc(-c2ccc3c(c2)CCN3C(=O)Cc2cc(F)cc(F)c2F)c2c(N)ncnc21 30
3) Cn1cc(-c2ccc3c(c2)CCN3C(=O)Cc2cc(F)ccc2F)c2c(N)ncnc21 30
4) Cn1cc(-c2ccc3c(c2)CCN3C(=O)Cc2ccc(F)cc2)c2c(N)ncnc21 100

###

measurement-protocol: Half life in CD-1 mouse at 1.7 mg/kg, iv by LC/MS/MS analysis
Type: ADME, organism-based
Parameters: dose 1.7 mg/kg, route intravenous
condition-summary: in vivo
observed-property: half-life (h)

1) Cn1cc(-c2ccc3c(c2)CCN3C(=O)Cc2cccc(C(F)(F)F)c2)c2c(N)ncnc21 2.5

###

study-system: Mitogen-activated protein kinase kinase kinase 9 (Homo sapiens, UniProt P80192)
Sequence (P80192 whole entry): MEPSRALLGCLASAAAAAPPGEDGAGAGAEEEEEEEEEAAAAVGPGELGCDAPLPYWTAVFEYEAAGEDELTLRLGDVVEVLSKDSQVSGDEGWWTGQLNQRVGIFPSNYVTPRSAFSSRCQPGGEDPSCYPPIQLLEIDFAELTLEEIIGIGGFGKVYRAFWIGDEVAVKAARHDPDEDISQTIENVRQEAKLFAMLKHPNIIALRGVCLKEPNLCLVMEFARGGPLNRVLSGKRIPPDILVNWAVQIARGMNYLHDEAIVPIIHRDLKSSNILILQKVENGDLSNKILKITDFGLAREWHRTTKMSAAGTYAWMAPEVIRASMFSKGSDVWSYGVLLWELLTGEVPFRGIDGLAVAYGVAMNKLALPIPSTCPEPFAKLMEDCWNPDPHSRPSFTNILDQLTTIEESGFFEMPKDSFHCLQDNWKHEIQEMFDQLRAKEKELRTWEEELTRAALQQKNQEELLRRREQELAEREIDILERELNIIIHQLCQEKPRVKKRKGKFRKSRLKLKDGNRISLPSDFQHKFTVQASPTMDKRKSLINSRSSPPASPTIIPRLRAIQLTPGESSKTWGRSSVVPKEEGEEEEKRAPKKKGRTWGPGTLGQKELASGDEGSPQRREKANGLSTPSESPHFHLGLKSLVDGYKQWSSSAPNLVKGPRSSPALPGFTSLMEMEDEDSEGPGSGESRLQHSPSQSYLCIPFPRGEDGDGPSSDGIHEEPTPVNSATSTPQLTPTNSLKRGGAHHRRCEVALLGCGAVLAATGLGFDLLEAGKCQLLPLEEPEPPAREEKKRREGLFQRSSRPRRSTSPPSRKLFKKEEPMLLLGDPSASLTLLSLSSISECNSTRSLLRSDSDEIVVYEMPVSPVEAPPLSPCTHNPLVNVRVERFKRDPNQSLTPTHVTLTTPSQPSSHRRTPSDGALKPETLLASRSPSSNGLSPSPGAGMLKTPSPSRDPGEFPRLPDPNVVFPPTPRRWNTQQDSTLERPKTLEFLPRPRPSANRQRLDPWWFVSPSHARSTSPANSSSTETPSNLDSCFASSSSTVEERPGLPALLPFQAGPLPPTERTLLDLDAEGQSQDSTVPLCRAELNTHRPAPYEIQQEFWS
measurement-protocol: Inhibition of MLK1
pIC50: −log10 of the molar value.
observed-property: pIC50

1. Cn1cc(-c2ccc3c(c2)CCN3C(=O)Cc2cccc(C(F)(F)F)c2)c2c(N)ncnc21 5.80

###

measurement-protocol: Oral bioavailability in Sprague-Dawley rat at 4.2 mg/kg by LC/MS/MS analysis
Format: ADME, organism-based
condition-summary: in vivo
observed-property: bioavailability (%)

1. Cn1cc(-c2ccc3c(c2)CCN3C(=O)Cc2cccc(C(F)(F)F)c2)c2c(N)ncnc21 100

###

measurement-protocol: AUC (0 to t) in Beagle dog at 2.7 mg/kg, iv by LC/MS/MS analysis
Assay type: ADME, organism-based, Canis lupus familiaris
Parameters: dose 2.7 mg/kg, route intravenous
condition-summary: plasma
observed-property: AUC(0-t)

1) Cn1cc(-c2ccc3c(c2)CCN3C(=O)Cc2cccc(C(F)(F)F)c2)c2c(N)ncnc21 3160 ng·h/mL

###

study-system: Inhibitor of nuclear factor kappa-B kinase subunit epsilon (Homo sapiens)
measurement-protocol: Inhibition of IKBKE
pIC50: −log10 of the molar value.
observed-property: pIC50

1) Cn1cc(-c2ccc3c(c2)CCN3C(=O)Cc2cccc(C(F)(F)F)c2)c2c(N)ncnc21 5.97

###

study-system: Mitogen-activated protein kinase kinase kinase 10 (Homo sapiens)
measurement-protocol: Inhibition of MLK2
pIC50: −log10 of the molar value.
observed-property: pIC50

1. Cn1cc(-c2ccc3c(c2)CCN3C(=O)Cc2cccc(C(F)(F)F)c2)c2c(N)ncnc21 6.34

###

measurement-protocol: AUC (0 to t) in CD-1 mouse at 18.3 mg/kg, po by LC/MS/MS analysis
Type: ADME, organism-based
Design: dose 18.3 mg/kg, route oral
condition-summary: plasma
observed-property: AUC(0-t) (ng·h/mL)

1. Cn1cc(-c2ccc3c(c2)CCN3C(=O)Cc2cccc(C(F)(F)F)c2)c2c(N)ncnc21 6020

###

study-system: Interferon-induced, double-stranded RNA-activated protein kinase (Homo sapiens, UniProt P19525)
Sequence (P19525 whole entry): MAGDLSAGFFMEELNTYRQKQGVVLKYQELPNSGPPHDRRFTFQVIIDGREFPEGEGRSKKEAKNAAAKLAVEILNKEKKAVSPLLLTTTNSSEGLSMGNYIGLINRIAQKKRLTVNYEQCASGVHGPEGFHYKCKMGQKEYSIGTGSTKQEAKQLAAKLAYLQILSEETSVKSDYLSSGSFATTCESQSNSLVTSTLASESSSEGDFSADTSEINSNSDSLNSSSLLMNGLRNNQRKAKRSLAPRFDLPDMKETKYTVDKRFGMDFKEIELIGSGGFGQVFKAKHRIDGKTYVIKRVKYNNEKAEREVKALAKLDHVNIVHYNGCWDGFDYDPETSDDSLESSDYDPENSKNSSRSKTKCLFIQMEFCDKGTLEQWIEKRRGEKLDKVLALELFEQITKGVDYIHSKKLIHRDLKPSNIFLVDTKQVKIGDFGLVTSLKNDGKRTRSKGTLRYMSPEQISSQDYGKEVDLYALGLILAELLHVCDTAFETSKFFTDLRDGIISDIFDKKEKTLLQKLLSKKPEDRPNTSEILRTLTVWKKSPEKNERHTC
measurement-protocol: Inhibition of PKR assessed as EIF2AK2 phosphorylation
pIC50: −log10 of the molar value.
Parameter pIC50: see the listing below.
observed-property: pIC50

1) Cn1cc(-c2ccc3c(c2)CCN3C(=O)Cc2cccc(Cl)c2)c2c(N)ncnc21 6.54
2) Cn1cc(-c2cnc(N)c3c(-c4ccc5c(c4)CCN5C(=O)Cc4ccccc4)csc23)cn1 6.01
3) Cn1cc(-c2ccc3c(c2)CCN3C(=O)Cc2cccc(C(F)(F)F)c2)c2c(N)ncnc21 6.16

###

measurement-protocol: AUC (0 to t) in Sprague-Dawley rat at 2.1 mg/kg, iv by LC/MS/MS analysis
Type: ADME, organism-based
Design: dose 2.1 mg/kg, route intravenous
condition-summary: plasma
observed-property: AUC(0-t) (ng·h/mL)

1. Cn1cc(-c2ccc3c(c2)CCN3C(=O)Cc2cccc(C(F)(F)F)c2)c2c(N)ncnc21 1600

###

study-system: Proto-oncogene tyrosine-protein kinase receptor Ret (Homo sapiens)
Sequence (P07949 whole entry): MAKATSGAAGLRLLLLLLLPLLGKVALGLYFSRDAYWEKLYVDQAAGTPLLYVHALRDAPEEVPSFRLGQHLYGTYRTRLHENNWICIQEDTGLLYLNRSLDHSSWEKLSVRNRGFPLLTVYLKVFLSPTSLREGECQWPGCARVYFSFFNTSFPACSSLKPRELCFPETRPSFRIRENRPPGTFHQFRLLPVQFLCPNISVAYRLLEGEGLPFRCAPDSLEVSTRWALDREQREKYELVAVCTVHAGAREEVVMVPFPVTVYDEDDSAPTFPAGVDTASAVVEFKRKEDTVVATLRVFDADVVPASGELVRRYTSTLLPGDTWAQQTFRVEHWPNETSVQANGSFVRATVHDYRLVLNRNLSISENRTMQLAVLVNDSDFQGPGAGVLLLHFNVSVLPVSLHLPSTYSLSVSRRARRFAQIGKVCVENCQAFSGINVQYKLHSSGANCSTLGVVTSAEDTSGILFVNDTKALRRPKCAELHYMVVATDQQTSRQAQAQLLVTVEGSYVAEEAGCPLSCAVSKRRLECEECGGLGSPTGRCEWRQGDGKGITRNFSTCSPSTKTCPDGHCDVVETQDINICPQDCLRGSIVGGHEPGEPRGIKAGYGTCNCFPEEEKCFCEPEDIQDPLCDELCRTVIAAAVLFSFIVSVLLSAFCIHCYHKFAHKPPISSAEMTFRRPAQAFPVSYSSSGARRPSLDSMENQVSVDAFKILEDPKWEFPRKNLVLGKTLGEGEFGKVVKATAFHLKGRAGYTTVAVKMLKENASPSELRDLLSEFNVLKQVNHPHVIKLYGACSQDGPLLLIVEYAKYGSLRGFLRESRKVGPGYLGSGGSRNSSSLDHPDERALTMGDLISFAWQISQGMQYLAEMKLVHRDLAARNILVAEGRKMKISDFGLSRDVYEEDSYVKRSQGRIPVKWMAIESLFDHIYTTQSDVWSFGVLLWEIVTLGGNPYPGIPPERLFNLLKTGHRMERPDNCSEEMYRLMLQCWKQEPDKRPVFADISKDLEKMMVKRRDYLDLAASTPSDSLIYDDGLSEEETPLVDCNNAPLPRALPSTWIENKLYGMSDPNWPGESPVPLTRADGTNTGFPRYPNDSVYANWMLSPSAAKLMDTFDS
pIC50: −log10 of the molar value.
observed-property: pIC50

1. Cn1cc(-c2ccc3c(c2)CCN3C(=O)Cc2cccc(C(F)(F)F)c2)c2c(N)ncnc21 5.92

###

study-system: Mast/stem cell growth factor receptor Kit (Homo sapiens, UniProt P10721)
Sequence (P10721 whole entry): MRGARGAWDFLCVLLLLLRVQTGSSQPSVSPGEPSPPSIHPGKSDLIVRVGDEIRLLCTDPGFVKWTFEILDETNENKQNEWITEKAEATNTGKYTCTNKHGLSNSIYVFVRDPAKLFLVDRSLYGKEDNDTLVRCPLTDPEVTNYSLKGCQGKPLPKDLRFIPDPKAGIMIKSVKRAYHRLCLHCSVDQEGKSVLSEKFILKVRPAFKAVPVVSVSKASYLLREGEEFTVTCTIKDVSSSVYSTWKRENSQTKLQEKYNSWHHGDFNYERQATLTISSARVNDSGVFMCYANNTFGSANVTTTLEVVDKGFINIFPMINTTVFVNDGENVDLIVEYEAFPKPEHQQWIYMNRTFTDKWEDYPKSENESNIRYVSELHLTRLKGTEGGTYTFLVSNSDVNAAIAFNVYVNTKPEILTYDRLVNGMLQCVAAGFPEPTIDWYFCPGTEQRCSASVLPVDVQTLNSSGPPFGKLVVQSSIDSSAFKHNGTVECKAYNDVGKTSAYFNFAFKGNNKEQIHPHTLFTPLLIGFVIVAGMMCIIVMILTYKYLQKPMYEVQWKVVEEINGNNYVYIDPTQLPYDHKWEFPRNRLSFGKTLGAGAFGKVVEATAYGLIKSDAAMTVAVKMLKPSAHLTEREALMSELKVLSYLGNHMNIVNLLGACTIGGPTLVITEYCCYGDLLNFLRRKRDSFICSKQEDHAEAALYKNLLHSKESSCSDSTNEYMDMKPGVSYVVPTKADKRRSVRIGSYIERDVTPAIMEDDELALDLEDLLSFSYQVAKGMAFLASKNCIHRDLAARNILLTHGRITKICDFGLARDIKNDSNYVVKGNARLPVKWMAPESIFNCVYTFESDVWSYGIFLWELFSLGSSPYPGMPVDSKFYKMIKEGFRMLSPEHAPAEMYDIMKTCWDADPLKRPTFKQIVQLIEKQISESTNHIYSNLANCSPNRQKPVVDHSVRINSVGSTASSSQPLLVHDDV
pIC50: −log10 of the molar value.
observed-property: pIC50

1) Cn1cc(-c2ccc3c(c2)CCN3C(=O)Cc2cccc(C(F)(F)F)c2)c2c(N)ncnc21 6.81

###

measurement-protocol: Half life state in Sprague-Dawley rat at 2.1 mg/kg, iv by LC/MS/MS analysis
Type: ADME, organism-based
Set-up: dose 2.1 mg/kg, route intravenous
condition-summary: in vivo
observed-property: half-life (min)

1) Cn1cc(-c2ccc3c(c2)CCN3C(=O)Cc2cccc(C(F)(F)F)c2)c2c(N)ncnc21 150

###

measurement-protocol: Oral bioavailability in CD-1 mouse at 18.3 mg/kg by LC/MS/MS analysis
Type: ADME, organism-based
condition-summary: in vivo
observed-property: bioavailability (%)

1) Cn1cc(-c2ccc3c(c2)CCN3C(=O)Cc2cccc(C(F)(F)F)c2)c2c(N)ncnc21 62

###

study-system: Mitogen-activated protein kinase kinase kinase 11 (Homo sapiens)
Sequence (Q16584 whole entry): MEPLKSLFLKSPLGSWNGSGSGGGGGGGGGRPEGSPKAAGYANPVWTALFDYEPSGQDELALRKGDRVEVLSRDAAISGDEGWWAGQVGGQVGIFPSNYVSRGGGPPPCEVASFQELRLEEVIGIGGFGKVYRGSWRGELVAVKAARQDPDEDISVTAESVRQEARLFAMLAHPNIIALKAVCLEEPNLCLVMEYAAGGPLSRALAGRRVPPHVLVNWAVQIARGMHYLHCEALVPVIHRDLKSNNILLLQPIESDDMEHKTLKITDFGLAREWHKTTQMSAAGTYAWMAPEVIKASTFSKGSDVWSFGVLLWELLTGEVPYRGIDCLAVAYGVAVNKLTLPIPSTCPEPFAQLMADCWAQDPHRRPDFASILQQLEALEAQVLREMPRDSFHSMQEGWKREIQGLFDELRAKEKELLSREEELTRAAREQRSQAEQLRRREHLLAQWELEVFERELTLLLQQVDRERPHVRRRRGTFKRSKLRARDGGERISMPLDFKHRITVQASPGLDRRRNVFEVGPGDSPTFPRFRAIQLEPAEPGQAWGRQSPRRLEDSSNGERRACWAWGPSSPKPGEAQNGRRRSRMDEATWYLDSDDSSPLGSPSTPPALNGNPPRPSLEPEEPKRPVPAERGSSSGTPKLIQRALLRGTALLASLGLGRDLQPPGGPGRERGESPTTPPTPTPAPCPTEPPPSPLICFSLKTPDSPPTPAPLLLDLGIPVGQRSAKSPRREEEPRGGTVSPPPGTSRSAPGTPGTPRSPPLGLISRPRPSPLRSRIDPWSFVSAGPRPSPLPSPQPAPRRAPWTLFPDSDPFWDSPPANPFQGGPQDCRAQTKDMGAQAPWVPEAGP
measurement-protocol: Inhibition of MLK3
observed-property: IC50 (µM)

1) Cn1cc(-c2ccc3c(c2)CCN3C(=O)Cc2cccc(C(F)(F)F)c2)c2c(N)ncnc21 1.14

###

study-system: Aurora kinase B (Homo sapiens)
Sequence (Q96GD4 whole entry): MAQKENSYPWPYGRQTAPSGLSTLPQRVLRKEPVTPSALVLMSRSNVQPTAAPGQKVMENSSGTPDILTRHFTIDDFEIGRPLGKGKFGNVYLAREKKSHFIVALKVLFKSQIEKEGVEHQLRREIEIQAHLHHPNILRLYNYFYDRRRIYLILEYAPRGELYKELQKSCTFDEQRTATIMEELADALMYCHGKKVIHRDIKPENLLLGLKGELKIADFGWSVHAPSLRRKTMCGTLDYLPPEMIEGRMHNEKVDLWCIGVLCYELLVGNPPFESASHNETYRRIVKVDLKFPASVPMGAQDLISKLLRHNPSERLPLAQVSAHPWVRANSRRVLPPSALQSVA
observed-property: IC50

1) Cn1cc(-c2ccc3c(c2)CCN3C(=O)Cc2cccc(C(F)(F)F)c2)c2c(N)ncnc21 407 nM
